Each entry below carries its recorded IC50.
# TARGET DESC: UniProt:P24941
# EXPERIMENT: Inhibition of CDK2/Cyclin A
Respond numerically; units are nM and should not be typed.

Here are 3 compounds together with their reported answers.
O=C(Nc1c[nH]nc1-c1nc2cc(CN3CCOCC3)ccc2[nH]1)NC1CCCCC1 | 1200
O=C(Nc1c[nH]nc1-c1nc2ccc(CN3CCOCC3)cc2[nH]1)c1ccc(F)cc1 | 530
O=C(Nc1c[nH]nc1-c1nc2cc(CN3CCOCC3)ccc2[nH]1)c1ccccc1 | 140

Lab note: "O=C(Nc1cccnc1)Nc1c[nH]nc1-c1nc2cc(CN3CCOCC3)ccc2[nH]1" gave IC50 of 160

Lab note: "O=C(Nc1ccccc1)Nc1c[nH]nc1-c1nc2cc(CN3CCOCC3)ccc2[nH]1" gave IC50 of 1800
